Reported inhibition at 10 µM values are given for each entry in this list.
test method notes: Cytotoxicity against human HFF-1 cells assessed as cell growth inhibition at 10 uM by MTT assay relative to control
Format: cell-based
measurement conditions: read-out: GI
The reply should be a number in %, with the unit left off.

Would you mind telling me what inhibition at 10 µM value was observed for "CN1CCN(CCCOc2cccc3nc(Nc4ccc(Cl)c(C(F)(F)F)c4)ccc23)CC1" ? 37.1

What do you get for "CN1CCN(CCCOc2cccc3nc(Nc4cc(Cl)cc(Cl)c4)ccc23)CC1" ? 13.3

Also "CN1CCN(CCCOc2cccc3nc(Nc4cccc(Cl)c4)ccc23)CC1" , if possible. 22.4

Recorded values, source ChEMBL document CHEMBL4715724.
